- testedOn: T1, human PACAP38 (human, not fully specified; C-terminal lysine is amidated; N-terminal or C-terminal biotin in the HTRF and PC-12 cell binding assays)
- T1 peptide: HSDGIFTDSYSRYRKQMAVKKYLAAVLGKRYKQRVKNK
- experimentalDetails: cell-based or functional assay
assayMetric: IC50, 5 nM PACAP38-induced human VPAC1-R mediated cAMP increase (pM)
Entry rule: numbers only, all in pM.

Use the examples below as a reference point.
binder	dataValue
anti-PACAP antibody Ab14 (antibody, human IgG1, kappa, N297A, V domains shown, full-length rabbit/human chimeric antibody) VH: QSVEASGGRLVTPGTPLTLTCTVSGFSLSSAAMNWVRQAPGKGLEWIGFIEYSKNIVYASWAKGRFTISKVSSTTVDLKMTSPTTEDTATYFCARGGGEFFIWGQGTLVTVSS VL: AQVLTQTPSSVSAAVGGTVTINCQSSQSVYSNNRLSYYQQKPGQPPKLLIYEASSLAYGVPSRFKGSGSGTQFTLTISDLECDDAATYYCAGAYSNSIYSFGGGTEVVVKR	2630
anti-PACAP antibody Ab7 (antibody, human IgG1, kappa, N297A, V domains shown, full-length rabbit/human chimeric antibody) VH: QSVEESGGRLVTPGTPLTLTCTASGIDLSGYAMGWVRQAPGKGLEWIGDISTYGTTDYASWVNGRFTISRTSTTVTLKMTSLTTEDTATYFCARDYWLSLWGPGTLVTVSS VL: AAVLTQTPSPVSAAVGGTVTIKCQSSQSVYDNNALAWYQQKPGQPPKLLIYAASTLASGVPSRFKGSGSGTQFTLTINGVQCDDAATYYCLGGYDDPADNAFGGGTEVVVKR	687
anti-PACAP antibody Ab2 (antibody, human IgG1, kappa, N297A, V domains shown, full-length rabbit/human chimeric antibody) VH: QSVEESGGRLVTPGTPLTLTCTVSGFSLSGAAMNWVRQAPGKGLEWIGVIGNSGSTYYASWAKGRFTISKTSSTTVDLKMTSPTTEDTATYFCARGGGEFFIWGQGTLVTVSS VL: AQVLTQTPSPVSAAVGGTVTINCQSSESVYKNNYLSWYQQKPGQPPKFLIYQASNLADGVPSRFKGSGSGTQFTLTISDLECDDAATYYCAGGYSTYMSGFGGGTEVVVKR	688
anti-PACAP antibody Ab13 (antibody, human IgG1, kappa, N297A, V domains shown, full-length rabbit/human chimeric antibody) VH: QSVEESGGRLVTPGTPLTLTCTVSGFSLSSAAMNWVRQAPGKGLEWIGIIDNTAGTYYAPWAKGRFTISKTSSTTVDLKMTSPTTEDTATYFCARGGGEFFIWGPGTLVTVSS VL: AQVLTQTPSSVSAAVGGTVTINCQSSQSVHDGSYLSWYQQKPGQPPNFLIYQASNLASGVPSRFKGSGSGTQFTLTISDLECDDAATYYCAGGYSSNICGFGGGTEVVVKR	2180
anti-PACAP antibody Ab3 (antibody, human IgG1, kappa, N297A, V domains shown, full-length rabbit/human chimeric antibody) VH: QEQLVESGGGLVQPEGSLTLTCTASGFSFSSSDYMCWVRQAPGKGLEWIGCIDAGSSGDTYFASWAKGRFTISKTSSTTVTLQMTSLTAADTATYFCARHLYGSITFAFGLWGQGTLVTVSS VL: AAVLTQTPSPVSAAVGGTVTINCQASQSIGSDLAWYQQKPGQPPKLLIYDASTLASGVPSRFSGSGSGTQFTLTISGVQCDDAATYYCQGTYYSSGWYTAFGGGTEVVVKR	1740

Query :: Value lookup for IC50, 5 nM PACAP38-induced human VPAC1-R mediated cAMP increase; key = anti-PACAP antibody Ab5.H (antibody, human IgG1, kappa, N297A, V domains shown, humanized form of Ab5, full length) VH: EVQLVESGGGLVQPGGSLRLSCAASGFSLSSYAMIWVRQAPGKGLEWVGIIYDNGDTYYASSAKGRFTISRDNSKNTVYLQMNSLRAEDTAVYFCAREPGSTTQNDLWGQGTLVTVSS VL: DVQMTQSPSTLSASVGDRVTITCQASENIYNSLLWYQQKPGKAPKLLIYRASTLASGVPSRFSGSGSGTEFTLTISSLQPDDFATYYCQNYYNIWTNGAAFGGGTKVEIKR
Result :: 2770

Query :: Would you kindly repeat that for anti-PACAP antibody Ab17 (antibody, human IgG1, kappa, N297A, V domains shown, full-length rabbit/human chimeric antibody) VH: QSVEESGGRLVTPGTPLTLTCTVSGFSLSSAAMNWVRQAPGKGLEWIGIFDPYSSTYYASWAKGRFTISKTSSTTVDLKMTSPTTEDTATYFCARGGGEFFIWGPGTLVTVSS VL: AQVLTQTPSSVSAAVGGTVTINCQSSQSVYKNKYLSWYQQKVGQPPKFLIYQASNLASGVPSRFKGSGSGTQFTLTISDLECDDAATYYCAGGYSGNMVDFGGGTEVVVKR ?
Result :: 780

Query :: Would you kindly repeat that for anti-PACAP antibody Ab12 (antibody, human IgG1, kappa, N297A, V domains shown, full-length rabbit/human chimeric antibody) VH: QSVEESGGRLVTPGTPLTLTCTASGFSLSSYAMGWVRQAPGKGLEWIGDISTYGTTDYASWVYGRFTISRTSTTVTLKMTSLTTEDTATYFCARDYWLSLWGQGTLVTVSS VL: AAVLTQTPSPVSAAVGGTVTIKCQSSQSVYDNNALAWYQQKPGQPPKLLIYAASTLASGVPSRFSGSGSGTEFTLTISGVQCDDAATYYCLGGYYDPADNAFGGGTEVVVKR ?
Result :: 292

Query :: Would you kindly repeat that for anti-PACAP antibody Ab9 (antibody, human IgG1, kappa, N297A, V domains shown, full-length rabbit/human chimeric antibody) VH: EQSGGGAEGGLVKPGGSLKLSCKASGFTISRDYWICWVRQAPGKGLEWIGCISAGGGSTDYANWVNGRFTLSRDIDQSTGCLQLNSLTDADTAMYYCAGNLEIWGQGTLVTVSS VL: AQVLTQTPSSVSAAVGGTVTINCQSSPSIYSGAFLSWFQQKPGQPPKFLIYEASKLASGVPSRFSGSGSGTQFTLTISDVQCDDAATYYCLGFYDCSSVDCHAFGGGTEVVVKR ?
Result :: 4060

Query :: Would you kindly repeat that for anti-PACAP antibody Ab8 (antibody, human IgG1, kappa, N297A, V domains shown, full-length rabbit/human chimeric antibody) VH: LEQSGGGAEGGLVKPGGSLELCCKASGFSLTTSHWMCWVRQAPGKGLNWIGCISAGSGDADYATWVDAQFTLSRDIDQNTGCLQLNSLTPADTAMYYCTINFELWGQGTLVTVSS VL: AQVLTQTPSSVSAAVGGTVTINCQSSPSVYSSYLSWFQQKPGQPPKFLIYEASKLASGVPSRFSGSGSGTQFTLTISGVQCSDAATYYCLGAYDCGRTDCHAFGGGTEVVVKR ?
Result :: 481
